Could you please report measured PBM E-score for the items listed next?
Biological target: Stp1 (UniProt B3LFK1)
Sequence: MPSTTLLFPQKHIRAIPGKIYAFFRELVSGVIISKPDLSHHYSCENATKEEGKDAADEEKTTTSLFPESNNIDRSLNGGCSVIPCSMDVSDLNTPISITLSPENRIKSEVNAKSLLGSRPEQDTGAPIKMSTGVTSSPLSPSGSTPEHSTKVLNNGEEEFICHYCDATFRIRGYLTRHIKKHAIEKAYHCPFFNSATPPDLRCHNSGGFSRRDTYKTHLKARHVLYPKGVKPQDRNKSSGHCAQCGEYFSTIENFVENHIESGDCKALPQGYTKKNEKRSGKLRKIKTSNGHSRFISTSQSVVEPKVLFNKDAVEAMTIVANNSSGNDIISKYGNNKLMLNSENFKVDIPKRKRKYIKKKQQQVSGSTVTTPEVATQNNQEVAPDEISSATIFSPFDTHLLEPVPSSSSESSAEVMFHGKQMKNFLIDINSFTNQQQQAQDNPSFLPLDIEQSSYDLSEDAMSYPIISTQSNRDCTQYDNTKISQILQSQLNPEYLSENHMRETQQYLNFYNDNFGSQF
Test: PBM E-score (8-mer binding enrichment) (E-score (-0.5 to 0.5)); higher = stronger / more preferred TF binding
Conditions: protein concentration: 200 nM; construct: GST-full length
Over roughly 33,000 sequences, “E-score (-0.5 to 0.5)” has its median near -0.016; the highest 2% begin near 0.32. For the sample, the highest values were picked, then their nearest neighbours and some sequences at random.
Give bare numbers.

AGCGCAGA : -0.0529

Respectfully, I request PBM E-score for each entry included below.
1. AGCGCCGG
2. ACCGTGCT

Reply |
[0.174, -0.133]

====

Could you please report measured PBM E-score for the items listed next?
Molecular target: Stp1 (UniProt B3LFK1)
Sequence: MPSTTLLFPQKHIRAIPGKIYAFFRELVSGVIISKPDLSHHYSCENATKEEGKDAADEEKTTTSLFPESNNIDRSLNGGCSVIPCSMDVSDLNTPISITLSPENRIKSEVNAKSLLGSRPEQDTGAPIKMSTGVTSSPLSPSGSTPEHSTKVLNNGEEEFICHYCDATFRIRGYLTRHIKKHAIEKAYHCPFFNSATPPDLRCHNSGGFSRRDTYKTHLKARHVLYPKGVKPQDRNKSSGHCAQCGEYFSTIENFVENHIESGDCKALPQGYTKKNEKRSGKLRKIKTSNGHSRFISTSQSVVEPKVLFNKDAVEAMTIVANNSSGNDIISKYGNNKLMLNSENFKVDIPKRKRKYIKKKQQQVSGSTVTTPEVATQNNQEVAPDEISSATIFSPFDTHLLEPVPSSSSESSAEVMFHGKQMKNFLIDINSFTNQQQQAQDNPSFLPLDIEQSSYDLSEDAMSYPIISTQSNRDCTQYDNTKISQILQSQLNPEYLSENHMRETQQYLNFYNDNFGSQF
Assay: PBM E-score (8-mer binding enrichment) (E-score (-0.5 to 0.5)); higher = stronger / more preferred TF binding
Conditions: protein concentration: 200 nM; construct: GST-full length
Over roughly 33,000 sequences, “E-score (-0.5 to 0.5)” has its median near -0.016; the highest 2% begin near 0.32. For the sample, the highest values were picked, then their nearest neighbours and some sequences at random.
Answers are plain numbers.

Record excerpt, results attached:
ACCGTGCC : 0.313
GACGTGCC : 0.238
ATCGGCAC : 0.297

Respectfully, I request PBM E-score for each entry included below.
1. AGAGCCGC
2. CCGTATGC
3. CTGGGTGA
4. TCCAAGCA
5. CACCATAC
6. TCCTCTAA
7. TAAAGTGA

Reply |
1. 0.44
2. 0.331
3. -0.229
4. 0.0574
5. -0.0768
6. -0.222
7. 0.135

Respectfully, I request PBM E-score for each entry included below.
1. ACCCTAGA
2. CCACCCAC
3. CACTGCCG
4. AGAGGCGG

Reply |
1. -0.227
2. 0.0467
3. 0.336
4. 0.061

====

Could you please report measured PBM E-score for the items listed next?
Target: Stp1 (UniProt B3LFK1)
Sequence: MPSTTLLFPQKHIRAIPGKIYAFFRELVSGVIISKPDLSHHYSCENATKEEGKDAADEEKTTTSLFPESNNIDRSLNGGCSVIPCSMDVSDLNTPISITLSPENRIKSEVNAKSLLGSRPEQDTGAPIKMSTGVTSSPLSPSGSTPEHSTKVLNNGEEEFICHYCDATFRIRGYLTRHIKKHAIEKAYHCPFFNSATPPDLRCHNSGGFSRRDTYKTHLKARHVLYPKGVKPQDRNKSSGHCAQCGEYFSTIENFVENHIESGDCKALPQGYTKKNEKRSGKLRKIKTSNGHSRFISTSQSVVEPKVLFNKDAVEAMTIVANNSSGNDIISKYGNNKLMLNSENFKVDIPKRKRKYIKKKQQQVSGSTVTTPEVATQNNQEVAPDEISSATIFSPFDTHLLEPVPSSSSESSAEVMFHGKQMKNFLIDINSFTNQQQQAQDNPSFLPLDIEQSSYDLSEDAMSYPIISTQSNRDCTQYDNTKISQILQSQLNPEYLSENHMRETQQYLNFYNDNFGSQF
Experiment: PBM E-score (8-mer binding enrichment) (E-score (-0.5 to 0.5)); higher = stronger / more preferred TF binding
Details: protein concentration: 200 nM; construct: GST-full length
Over roughly 33,000 sequences, “E-score (-0.5 to 0.5)” has its median near -0.016; the highest 2% begin near 0.32. Many of the other results were omitted from the sample, so the highest values are more common in it than they were.
Give bare numbers.

Respectfully, I request PBM E-score for each entry included below.
1. ACGGCTAC
2. ACGGCTAG
3. CCCTAGGA

Reply |
1. 0.407
2. 0.235
3. -0.314

====

Molecular target: Stp1 (UniProt B3LFK1)
Sequence: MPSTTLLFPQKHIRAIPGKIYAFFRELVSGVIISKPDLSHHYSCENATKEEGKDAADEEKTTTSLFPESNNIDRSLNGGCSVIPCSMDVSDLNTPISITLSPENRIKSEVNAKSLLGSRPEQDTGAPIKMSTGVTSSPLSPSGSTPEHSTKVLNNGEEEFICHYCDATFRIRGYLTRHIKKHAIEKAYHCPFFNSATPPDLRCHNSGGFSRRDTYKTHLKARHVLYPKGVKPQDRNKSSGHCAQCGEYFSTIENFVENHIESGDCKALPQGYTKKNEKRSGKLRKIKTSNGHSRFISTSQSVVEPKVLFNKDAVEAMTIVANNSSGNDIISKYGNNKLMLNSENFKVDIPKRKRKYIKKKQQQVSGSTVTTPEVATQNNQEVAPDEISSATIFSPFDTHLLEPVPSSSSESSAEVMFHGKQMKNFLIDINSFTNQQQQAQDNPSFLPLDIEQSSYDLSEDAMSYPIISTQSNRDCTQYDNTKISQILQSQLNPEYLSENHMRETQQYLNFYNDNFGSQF
Test: PBM E-score (8-mer binding enrichment) (E-score (-0.5 to 0.5)); higher = stronger / more preferred TF binding
Conditions: protein concentration: 200 nM; construct: GST-full length
Whole data set: some 33,000 sequences, median “E-score (-0.5 to 0.5)” near -0.016, cut for the highest 2% near 0.32. The full list was thinned out, with the highest values kept by preference.
// bucketize PBM E-score: lower = under -0.01, middle = from -0.01 up to 0.2, upper = 0.2 and over

Solved cases (5 shown):
AAAGCACG : middle
ACGGCATG : upper
AGTATAGG : lower
AGTCGATG : lower
AAGCGGCT : upper

Ask | Determine which band this sequence sits in: AAGCGGAA
Reply | middle

Ask | Likewise for GCAAGCTA ?
Reply | lower

Ask | Likewise for CGGGCACC ?
Reply | upper

Ask | Likewise for GCGGCACA ?
Reply | upper

====

Target: Stp1 (UniProt B3LFK1)
Sequence: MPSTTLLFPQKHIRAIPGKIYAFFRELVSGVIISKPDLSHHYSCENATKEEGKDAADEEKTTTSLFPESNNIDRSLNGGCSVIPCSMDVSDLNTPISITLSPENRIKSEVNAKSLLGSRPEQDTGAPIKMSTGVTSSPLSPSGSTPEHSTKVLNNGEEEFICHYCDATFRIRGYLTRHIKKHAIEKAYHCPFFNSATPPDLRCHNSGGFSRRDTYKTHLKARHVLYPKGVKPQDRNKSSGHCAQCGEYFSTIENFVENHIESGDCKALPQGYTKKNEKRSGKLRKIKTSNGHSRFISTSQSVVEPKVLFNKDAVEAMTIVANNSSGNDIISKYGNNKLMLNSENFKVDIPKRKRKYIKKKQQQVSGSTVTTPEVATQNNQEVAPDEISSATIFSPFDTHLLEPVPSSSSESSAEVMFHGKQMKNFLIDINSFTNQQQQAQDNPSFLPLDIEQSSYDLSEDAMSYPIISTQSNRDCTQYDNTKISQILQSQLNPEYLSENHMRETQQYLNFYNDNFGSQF
Experiment: PBM E-score (8-mer binding enrichment) (E-score (-0.5 to 0.5)); higher = stronger / more preferred TF binding
Conditions: protein concentration: 200 nM; construct: GST-full length
The full ranking holds about 33,000 sequences; the median of “E-score (-0.5 to 0.5)” is about -0.016, and the highest 2% start at about 0.32. The sample as a whole holds a higher share of the highest values than the screen did.
ENDPOINT: PBM E-score

Record excerpt, results attached:
AGGCGCGA : 0.392
AAAAGAAC : 0.0475
AGCGGCAA : 0.321

Respectfully, I request PBM E-score for each entry included below.
1. GGGGGCAC
2. AAGCGCGG
3. GAGGAGGC
4. ACAGATAG
5. AGGCCTCC
6. CCATGCCC
7. GAGAACAA

Reply |
1: -0.266; 2: 0.171; 3: 0.00167; 4: -0.0308; 5: -0.164; 6: -0.0806; 7: 0.145

Respectfully, I request PBM E-score for each entry included below.
1. GGGCGCGA
2. TAAGTCAA
3. GGGGCAAC
4. GCTTAGAC
5. ACAGAGAA
6. ACAAGGGC
7. TAATTTCA

Reply |
[0.28, -0.0101, -0.107, -0.11, -0.0516, -0.0113, 0.242]
